Test system: IL-2
test_name: Inhibition of IL-2 production in phytohemagglutinin-activated human PBMCs (sandwich ELISA)
Format: cell-based
study_conditions: Homo sapiens, PBMC, 46 h, approximately 46 hours, read-out: IL-2 pIC50 (converted)
Method: Peripheral blood mononuclear cells (PBMCs) were isolated from human blood. The lymphocytes, a fraction of the PBMCs, were activated to secrete IL-2 using the polyclonal mitogen phytohemagglutinin. […] After 46 hours the cells were centrifuged down for 25 minutes at 1000×g and the supernatants were transferred to transferred to microtiter wells precoated with a monoclonal antibody against human IL-2. The IL-2 concentration in the supernatants was determined by a sandwich ELISA. […]
This listing pairs molecules with measured IC50.
observation_type: IC50 (nM)

CCOC(=O)CCCNC(=O)c1cc(C)c(/C=C2\C(=O)Nc3ccccc32)[nH]1: 39.8
Cc1cc(/C=C2/C(=O)Nc3ccccc32)sc1C: 100
Cc1cc(/C=C2/C(=O)Nc3ccccc32)oc1C: 3.98
Cc1cccc2c(/C=C3/C(=O)Nc4ccccc43)c[nH]c12: 3.98
O=CN1CCN(c2ccc(/C=C3\C(=O)Nc4ccccc43)cc2)CC1: 316
Cc1[nH]c(/C=C2\C(=O)Nc3cccc(Cl)c32)c(C)c1CCC(=O)O: 50.1
COc1ccc(/C=C2\C(=O)Nc3ccc(Cl)cc32)cc1: 10
Cc1ccc(C)c(/C=C2/C(=O)Nc3ccccc32)c1 [drawing 112]: 100
COc1ccc2c(c1)/C(=C/c1c[nH]c3ccccc13)C(=O)N2: 31.6
COc1ccc2c(/C=C3\C(=O)Nc4ccccc43)c[nH]c2c1: 0.2
Cc1cc(C(=O)NCC2CCCCC2)[nH]c1/C=C1\C(=O)Nc2ccccc21: 31.6
COc1ccc(OC)c(/C=C2/C(=O)Nc3cc(F)ccc32)c1: 10
N#Cc1ccc2c(c1)/C(=C/c1c[nH]c3ccccc13)C(=O)N2: 1
COc1cc(OC)c(OC)cc1/C=C1/C(=O)Nc2ccccc21: 2
O=C1Nc2c(F)cccc2/C1=C/c1c[nH]c2ccccc12: 0.316
CCOC(=O)CCCCCNC(=O)c1cc(C)c(/C=C2\C(=O)Nc3ccccc32)[nH]1: 79.4
Cc1ccc2[nH]cc(/C=C3/C(=O)Nc4ccccc43)c2c1: 20
COC(=O)CCCNC(=O)c1cc(C)c(/C=C2\C(=O)Nc3ccccc32)[nH]1: 50.1
Cc1cc(C)c(/C=C2\C(=O)N(O)c3ccccc32)[nH]1 [drawing 224]: 10
CON1C(=O)/C(=C\c2[nH]c(C)cc2C)c2ccccc21: 10
COc1ccc(OC)c(/C=C2/C(=O)Nc3ccc(Br)cc32)c1: 100
Cc1cc(C(=O)OCc2ccccc2)[nH]c1/C=C1\C(=O)Nc2ccccc21: 20
O=C1Nc2cc(Br)ccc2/C1=C/c1c[nH]c2ccccc12: 3.16
O=C1Nc2c(Br)cccc2/C1=C/c1c[nH]c2ccccc12: 0.2
Cc1cc(C(=O)NCCCCCCO)[nH]c1/C=C1\C(=O)Nc2ccccc21: 100
N#Cc1cccc2c1NC(=O)/C2=C\c1c[nH]c2ccccc12: 1
Cc1cc(C)c(/C=C2\C(=O)Nc3ccc(O)cc32)[nH]1: 794
O=C1Nc2ccccc2/C1=C\c1cc(O)ccc1O: 100
COc1ccc(F)c(/C=C2/C(=O)Nc3ccccc32)c1: 63.1
Cc1cc(C(=O)NCCCCc2ccccc2)[nH]c1/C=C1\C(=O)Nc2ccccc21: 100
Cc1ccc2c(/C=C3/C(=O)Nc4ccccc43)c[nH]c2c1: 0.1
COc1ccc(OC)c(/C=C2/C(=O)Nc3c(F)cccc32)c1: 501
O=C1Nc2ccccc2/C1=C/c1cc(Br)ccc1O: 20
Cc1cc(C)c(/C(C(=O)OCc2ccccc2)=C2\C(=O)Nc3ccccc32)[nH]1: 20
Cc1cc(C(=O)NCCCc2ccccc2)[nH]c1/C=C1\C(=O)Nc2ccccc21: 50.1
O=C1Nc2ccccc2/C1=C\c1cc(-c2ccccc2)cs1: 31.6
Cc1[nH]c(/C=C2\C(=O)N(O)c3ccccc32)c(C)c1Br: 1
O=C1Nc2ccccc2/C1=C/c1c[nH]c2ccc(F)cc12: 100
COc1ccc(OC)c(/C=C2/C(=O)N(O)c3ccccc32)c1: 10
O=C1Nc2cc(F)ccc2/C1=C/c1c[nH]c2ccccc12: 3.16
O=C1Nc2ccccc2/C1=C\c1cccc(F)c1: 200
Cc1cc(C)cc(-c2ccc(N(C)CCN(C)C)c(/C=C3\C(=O)Nc4ccccc43)c2)c1: 63.1
O=C1Nc2ccccc2/C1=C\c1cc(Br)co1: 31.6
O=C1Nc2ccccc2/C1=C\c1cn(Cc2cnc(Cl)s2)c2ccccc12: 10
O=C1Nc2ccccc2/C1=C\c1cc(Cl)cc(Cl)c1O: 398
